# Tested on: homoserine transsuccinylase
# method notes: Homoserine transsuccinylase enzyme test using cell extracts, decrease in extinction at 232 nm, with and without L-methionine
# Assay type: biochemical, E. coli
# experimental parameters: cell extract of E. coli W3110 transformants; 1 mM homoserine, 0.1 mM succinyl-CoA, 50 mM Tris/Cl pH 7.6
measured parameter: Activity (U/mg)
Write the number in U/mg without appending the unit.

Recorded result, pSLmetAY: MetA variant with Tyr instead of Asp at position 101 (protein, UniProt P07623 2-309, looked up, variant D101Y) Homoserine …: PIRVPDELPAVNFLREENVFVMTTSRASGQEIRPLKVLILNLMPKKIETENQFLRLLSNSPLQVDIQLLRIDSRESRNTPAEHLNNFYCNFEDIQDQNFYGLIVTGAPLGLVEFNDVAYWPQIKQVLEWSKDHVTSTLFVCWAVQAALNILYGIPKQTRTEKLSGVYEHHILHPHALLTRGFDDSFLAPHSRYADFPAALIRDYTDLEILAETEEGDAYLFASKDKRIAFVTGHPEYDAQTLAQEFFRDVEAGLDPDVPYNYFPHNDPQNTPRASWRSHGNLLFTNWLNYYVYQITPYDLRHMNPTLD , Activity (U/mg): 0.094
